Recorded values, source PubChem BioAssay (EPA / NIEHS).

protocol.details: APR_HepG2_NuclearSize_24hr: Apredica 24-hour HepG2 Assay for Nuclear Size (AID 2282907)
test.conditions: high-content imaging, actives raise or lower the signal
Calls of active or inactive are those of the source. How the source made its calls: active means hit-call score of the fitted dose curve at least 0.9, where 1 is the maximum; inactive means score below 0.9.
quantity: outcome

Solved entries:
compound	result
CC(C)(C)C(O)C(Oc1ccc(Cl)cc1)n1cncn1 (stereo not drawn)	inactive
CC[C@H](C)[C@H]1O[C@]2(C=C[C@@H]1C)C[C@@H]1C[C@@H](C/C=C(\C)[C@@H](O[C@H]3C[C@H](OC)[C@@H](O[C@H]4C[C@H](OC)[C@@H](O)[C@H](C)O4)[C@H](C)O3)[C@@H](C)/C=C/C=C3\CO[C@@H]4[C@H](O)C(C)=C[C@@H](C(=O)O1)[C@]34O)O2 (tested in a mixture with another compound)	inactive
O=C(NC(=O)c1c(F)cccc1F)Nc1ccc(OC(F)(F)C(F)OC(F)(F)F)c(Cl)c1 (stereo not drawn)	inactive
O=C(O)COc1ccc(Cl)cc1Cl	inactive
ClC1C(Cl)C(Cl)C(Cl)C(Cl)C1Cl (stereo not drawn)	inactive

Query CCOC1Oc2ccc(OS(C)(=O)=O)cc2C1(C)C (stereo not drawn) yields outcome of inactive

Entry CC1(C)C(C=C(Cl)Cl)C1C(=O)OC(C#N)c1ccc(F)c(Oc2ccccc2)c1 (stereo not drawn) , outcome reported as inactive

Documented outcome of `CNC(=O)/C=C(\C)OP(=O)(OC)OC` : inactive

* * *

Read-out: Forkhead box O3 (FOXO3), FOXO3 (gene 2309)
protocol.details: LTEA_HepaRG_FOXO3: Life Technologies and Expression Analysis (LTEA) Assay for Forkhead box O3 (FOXO3) using HepaRG (AID 2283459)
test.conditions: mRNA level, 48 h; actives raise or lower the signal
Protocol: LTEA_HepaRG is a cell based, multiplexed-readout assay that uses HepaRG, a human liver cell line, with measurements taken at 48 hours after chemical dosing on a 96-well plate.LTEA_HepaRG_FOXO3 is one of 102 assay component(s) measured in the LTEA HepaRG cell culture assay. It is a marker of Cell proliferation, survival, death.Data from the assay component LTEA_HepaRG_FOXO3 was analyzed into 1 endpoint. […]
Calls of active or inactive are those of the source. Rule for the calls: active = hit-call score of the fitted dose curve at least 0.9, where 1 is the maximum; inactive = score below 0.9.
Respond using exactly one of the listed classes: true (active), false (inactive)

QUERY: What was the test verdict on CC[C@H](C)[C@H]1O[C@]2(C=C[C@@H]1C)C[C@@H]1C[C@@H](C/C=C(\C)[C@@H](O[C@H]3C[C@H](OC)[C@@H](O[C@H]4C[C@H](OC)[C@@H](O)[C@H](C)O4)[C@H](C)O3)[C@@H](C)/C=C/C=C3\CO[C@@H]4[C@H](O)C(C)=C[C@@H](C(=O)O1)[C@]34O)O2 (tested in a mixture with another compound) ?
RESULT: false

QUERY: I would be grateful if you could indicate the recorded call for `O=C(O)C(F)(F)C(F)(F)C(F)(F)C(F)(F)C(F)(F)C(F)(F)C(F)(F)F` .
RESULT: false

QUERY: Record lookup: outcome of this test for `C#CCN1C(=O)COc2cc(F)c(N3C(=O)C4=C(CCCC4)C3=O)cc21` ?
RESULT: false

QUERY: Answer briefly: the call reported for `O=C(O)COc1ccc(Cl)cc1Cl` in this assay.
RESULT: false

QUERY: # lookup: test call for `CNC(=O)Oc1ccccc1OC(C)C`
RESULT: false

QUERY: Could you please tell me the result logged for CC1(c2ccc(Oc3ccccc3)cc2)OC(=O)N(Nc2ccccc2)C1=O (stereo not drawn) in this assay?
RESULT: true

QUERY: Recorded call for CC(C)(C)C(O)/C(=C\c1ccc(Cl)cc1Cl)n1cncn1 (stereo not drawn) ?
RESULT: true

QUERY: Identify the outcome logged in this assay for the molecule shown: `COc1nn(CSP(=S)(OC)OC)c(=O)s1`
RESULT: false
